- target-entity: SRC (Homo sapiens)
- Construct: purchased Invitrogen
- Sequence (P12931 whole entry): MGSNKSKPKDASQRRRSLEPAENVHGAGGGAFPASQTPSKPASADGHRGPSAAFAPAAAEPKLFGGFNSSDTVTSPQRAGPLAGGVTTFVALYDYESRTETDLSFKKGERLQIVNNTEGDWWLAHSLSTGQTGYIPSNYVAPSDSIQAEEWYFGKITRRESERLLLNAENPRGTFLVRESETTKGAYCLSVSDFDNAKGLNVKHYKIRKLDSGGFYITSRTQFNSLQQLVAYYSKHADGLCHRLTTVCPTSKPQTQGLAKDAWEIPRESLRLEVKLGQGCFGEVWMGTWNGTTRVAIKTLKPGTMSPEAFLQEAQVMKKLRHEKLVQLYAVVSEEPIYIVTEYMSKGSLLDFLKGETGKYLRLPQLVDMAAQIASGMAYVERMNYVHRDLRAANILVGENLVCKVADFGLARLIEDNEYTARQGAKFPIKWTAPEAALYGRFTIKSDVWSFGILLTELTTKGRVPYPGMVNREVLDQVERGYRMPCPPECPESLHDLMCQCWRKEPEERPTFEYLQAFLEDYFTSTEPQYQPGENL
- assay-info: In vitro kinase assay (Z'-LYTE, Invitrogen)
- Type: biochemical
- assay-context: compound at 100 nM, ATP Km apparent, read-out: % of inhibition of the kinase compared to the control
- Experimental: The inhibitory activity of the compounds on 7 kinases (BRAF, EGFR (ErbB1), EGFR (ErbB1) T790M L858R, FGFR2, KDR (VEGFR2), PDGFRA (PDGFR alpha), SRC) was evaluated by Invitrogen using the Z′-LYTE® technology. Briefly, the Z′-LYTE® biochemical assay employs a fluorescence-based, coupled-enzyme format and is based on the differential sensitivity of phosphorylated and non-phosphorylated peptides to proteolytic cleavage. […]
For each record, write down the corresponding inhibition at 0.1 µM.

Use the examples below as a reference point.
[
  {
    "smiles-structure": "COC(=O)c1cc2cc(CNC(=O)c3cc(NC(=O)c4ccc(CN5CCN(C)CC5)c(C(F)(F)F)c4)ccc3C)cnc2[nH]1",
    "inhibition at 0.1 µM": "< 50%"
  },
  {
    "smiles-structure": "COC(=O)c1cc2cc(CCc3ccc(C)c(NC(=O)c4cc(-n5cnc(C)c5)cc(C(F)(F)F)c4)c3)cnc2[nH]1",
    "inhibition at 0.1 µM": "≥ 50%"
  }
]

Attention now shifts to the item below.
If you can, please state the reported inhibition at 0.1 µM value of `COC(=O)c1cc2cc(CNc3cc(NC(=O)c4ccc(CN5CCN(C)CC5)cc4)ccc3C)cnc2[nH]1` .
< 50%

---

- target-entity: BRAF (Homo sapiens)
- Construct: purchased Invitrogen
- Sequence (P15056 whole entry): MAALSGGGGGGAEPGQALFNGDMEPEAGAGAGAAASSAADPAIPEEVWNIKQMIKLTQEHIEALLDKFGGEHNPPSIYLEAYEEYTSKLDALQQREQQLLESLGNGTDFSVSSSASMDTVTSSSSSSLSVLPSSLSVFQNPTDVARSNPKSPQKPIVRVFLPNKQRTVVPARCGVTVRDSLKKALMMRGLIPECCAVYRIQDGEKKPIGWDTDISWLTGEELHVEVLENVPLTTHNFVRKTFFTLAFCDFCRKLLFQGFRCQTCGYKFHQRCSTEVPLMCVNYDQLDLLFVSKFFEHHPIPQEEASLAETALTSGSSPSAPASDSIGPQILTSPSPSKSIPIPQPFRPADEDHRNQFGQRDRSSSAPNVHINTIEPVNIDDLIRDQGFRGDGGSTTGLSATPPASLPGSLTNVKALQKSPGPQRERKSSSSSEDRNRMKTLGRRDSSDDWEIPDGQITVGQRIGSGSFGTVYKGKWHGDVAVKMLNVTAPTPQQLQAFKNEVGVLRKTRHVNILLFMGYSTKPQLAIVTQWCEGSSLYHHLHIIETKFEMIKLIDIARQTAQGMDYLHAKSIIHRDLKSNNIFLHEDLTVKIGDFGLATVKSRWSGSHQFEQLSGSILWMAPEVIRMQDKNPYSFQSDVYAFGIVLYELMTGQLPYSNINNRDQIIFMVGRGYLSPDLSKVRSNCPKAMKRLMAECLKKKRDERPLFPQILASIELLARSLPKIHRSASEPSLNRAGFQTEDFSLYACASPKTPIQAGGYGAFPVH
- assay-info: In vitro kinase assay (Z'-LYTE, Invitrogen)
- Format: biochemical
- assay-context: compound at 100 nM, ATP Km apparent, read-out: % of inhibition of the kinase compared to the control
measurement-type: inhibition at 0.1 µM

Use the examples below as a reference point.
[
  {
    "compound": "CC(=O)c1cc2cc(CCc3cc(NC(=O)c4ccc(CN5CC[C@H](N(C)C)C5)c(C(F)(F)F)c4)ccc3C)cnc2[nH]1",
    "inhibition at 0.1 µM": "≥ 50%"
  },
  {
    "compound": "COC(=O)c1cc2cc(CCc3cc(NC(=O)c4cncc(C(F)(F)F)c4)ccc3Cl)cnc2[nH]1",
    "inhibition at 0.1 µM": "≥ 50%"
  },
  {
    "compound": "Cc1ccc(NC(=O)c2ccc(CN3CCN(C)CC3)c(C(F)(F)F)c2)cc1CCc1cnc2[nH]c(C(=O)O)cc2c1",
    "inhibition at 0.1 µM": "< 50%"
  }
]

Attention now shifts to the item below.
If you can, please state the reported inhibition at 0.1 µM value of COC(=O)c1cc2cc(CCc3ccc(C)c(NC(=O)c4ccc(CN5CCC(N(C)C)C5)c(C(F)(F)F)c4)c3)cnc2[nH]1 (stereo not shown) .
< 50%

---

- target-entity: PDGFRA (PDGFR alpha) (Homo sapiens, UniProt P16234)
- Construct: purchased Invitrogen
- Sequence (P16234 24-1089): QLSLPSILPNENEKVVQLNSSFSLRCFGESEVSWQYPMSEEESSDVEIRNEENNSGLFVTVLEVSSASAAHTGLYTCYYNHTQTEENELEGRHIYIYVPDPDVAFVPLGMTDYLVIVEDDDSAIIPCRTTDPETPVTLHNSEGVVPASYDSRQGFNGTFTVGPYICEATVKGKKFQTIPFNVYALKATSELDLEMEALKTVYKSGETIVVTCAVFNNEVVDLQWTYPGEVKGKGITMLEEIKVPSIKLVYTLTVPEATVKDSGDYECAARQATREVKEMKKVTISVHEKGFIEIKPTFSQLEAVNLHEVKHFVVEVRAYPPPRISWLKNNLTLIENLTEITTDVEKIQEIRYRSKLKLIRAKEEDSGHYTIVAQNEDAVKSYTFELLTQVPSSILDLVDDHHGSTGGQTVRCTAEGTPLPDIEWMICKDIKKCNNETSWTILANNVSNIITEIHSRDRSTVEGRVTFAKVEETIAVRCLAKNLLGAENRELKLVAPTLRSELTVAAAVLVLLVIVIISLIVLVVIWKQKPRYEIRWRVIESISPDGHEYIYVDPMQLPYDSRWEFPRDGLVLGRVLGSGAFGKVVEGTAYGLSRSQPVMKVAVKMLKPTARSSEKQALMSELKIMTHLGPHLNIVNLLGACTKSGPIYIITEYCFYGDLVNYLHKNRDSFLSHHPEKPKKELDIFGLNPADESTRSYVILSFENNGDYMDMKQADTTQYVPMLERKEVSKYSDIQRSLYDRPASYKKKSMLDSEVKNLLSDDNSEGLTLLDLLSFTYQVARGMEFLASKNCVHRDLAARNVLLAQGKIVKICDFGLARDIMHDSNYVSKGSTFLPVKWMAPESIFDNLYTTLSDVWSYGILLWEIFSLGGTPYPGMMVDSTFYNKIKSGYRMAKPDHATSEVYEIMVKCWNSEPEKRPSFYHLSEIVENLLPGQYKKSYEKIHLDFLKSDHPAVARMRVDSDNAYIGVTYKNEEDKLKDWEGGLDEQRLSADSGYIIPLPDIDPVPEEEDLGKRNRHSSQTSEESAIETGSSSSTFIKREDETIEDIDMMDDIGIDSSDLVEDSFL
- assay-info: In vitro kinase assay (Z'-LYTE, Invitrogen)
- Format: biochemical
- assay-context: compound at 100 nM, ATP Km apparent, read-out: % of inhibition of the kinase compared to the control
- Procedure: The inhibitory activity of the compounds on 7 kinases (BRAF, EGFR (ErbB1), EGFR (ErbB1) T790M L858R, FGFR2, KDR (VEGFR2), PDGFRA (PDGFR alpha), SRC) was evaluated by Invitrogen using the Z′-LYTE® technology. Briefly, the Z′-LYTE® biochemical assay employs a fluorescence-based, coupled-enzyme format and is based on the differential sensitivity of phosphorylated and non-phosphorylated peptides to proteolytic cleavage. […]
measurement-type: inhibition at 0.1 µM

Use the examples below as a reference point.
[
  {
    "compound": "COC(=O)c1cc2cc(CNc3cc(NC(=O)c4ccc(CN5CCN(C)CC5)cc4)ccc3C)cnc2[nH]1 [OR0746]",
    "inhibition at 0.1 µM": "≥ 50%"
  },
  {
    "compound": "CC(=O)c1cc2cc(CCc3cc(NC(=O)Cc4cccc(C(F)(F)F)c4)ccc3C)cnc2[nH]1 [OR0966]",
    "inhibition at 0.1 µM": "< 50%"
  },
  {
    "compound": "COC(=O)c1cc2cc(CNc3cc(NC(=O)c4ccc(C)cc4)ccc3C)cnc2[nH]1 [OR0738]",
    "inhibition at 0.1 µM": "< 50%"
  }
]

List the reported inhibition at 0.1 µM of each compound below.
1. COC(=O)c1cc2cc(CCc3cc(NC(=O)c4ccc(CN5CCN(C)CC5)cc4)ccc3C)cnc2[nH]1 [OR0834]
2. COC(=O)c1cc2cc(CCc3ccc(C)c(NC(=O)c4cc(-n5cnc(C)c5)cc(C(F)(F)F)c4)c3)cnc2[nH]1 [OR1068]
3. COC(=O)c1cc2cc(CNc3cc(NC(=O)c4ccc(CN5CCN(C)CC5)c(C(F)(F)F)c4)ccc3C)cnc2[nH]1 [OR0747]
4. COC(=O)c1cc2cc(CCc3cc(NC(=O)C4CCC(C(F)(F)F)CC4)ccc3C)cnc2[nH]1 (stereo not shown) [OR1057]

1. ≥ 50%
2. ≥ 50%
3. ≥ 50%
4. ≥ 50%
